# system name: HSA (human albumin) (Homo sapiens (Human))
# Sequence (P02768 25-609): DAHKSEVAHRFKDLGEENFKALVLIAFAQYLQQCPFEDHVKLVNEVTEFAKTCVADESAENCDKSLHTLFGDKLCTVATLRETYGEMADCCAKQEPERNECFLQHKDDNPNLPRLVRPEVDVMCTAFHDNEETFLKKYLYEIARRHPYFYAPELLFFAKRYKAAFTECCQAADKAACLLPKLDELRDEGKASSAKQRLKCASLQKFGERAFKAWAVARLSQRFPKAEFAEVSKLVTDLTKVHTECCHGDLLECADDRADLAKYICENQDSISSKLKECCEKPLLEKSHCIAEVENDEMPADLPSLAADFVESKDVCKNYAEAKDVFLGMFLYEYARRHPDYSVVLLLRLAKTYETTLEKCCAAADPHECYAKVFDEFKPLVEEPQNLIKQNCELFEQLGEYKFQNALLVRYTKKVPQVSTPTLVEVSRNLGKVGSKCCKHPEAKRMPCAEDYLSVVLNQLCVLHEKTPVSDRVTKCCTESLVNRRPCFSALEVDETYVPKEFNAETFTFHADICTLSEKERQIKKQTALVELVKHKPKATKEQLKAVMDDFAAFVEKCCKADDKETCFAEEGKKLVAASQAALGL
# protocol description: HSA binding analysis using a chiral HSA column
# Assay type: in vitro ADME
# experimental setup: classification of AB %
result type: HSA binding Conclusion

compound_structure=CN1CCC2(CC1)Cc1cc(/C=C/C(=O)N3CC(c4cc5ccccc5o4)C3)cnc1NC2=O measured=Moderate
compound_structure=O=C1CCc2cc(/C=C/C(=O)N3CC(c4cc5ccccc5o4)C3)cnc2N1 measured=Moderate
compound_structure=Cc1c(C2CN(C(=O)/C=C/c3cnc4c(c3)CCC(=O)N4)C2)oc2ccccc12 measured=Moderate

###

# system name: HSA (human albumin) (Homo sapiens (Human))
# protocol description: HSA binding analysis using a chiral HSA column
# Type: in vitro ADME
result type: affinity in vitro to human albumin

The cases that follow already have their affinity in vitro to human albumin on record.
compound_structure=O=C1CCc2cc(/C=C/C(=O)N3CC(OCCc4cccs4)C3)cnc2N1 system_name="HSA (human albumin) (Homo sapiens (Human))" result_type="affinity in vitro to human albumin" measured="low affinity"
compound_structure=CCCCOC1CN(C(=O)/C=C/c2cnc3c(c2)CC2(CCN(C)CC2)C(=O)N3)C1 system_name="HSA (human albumin) (Homo sapiens (Human))" result_type="affinity in vitro to human albumin" measured="low affinity"
compound_structure=Cc1c(C2CN(C(=O)/C=C/c3cnc4c(c3)CCC(=O)N4)C2)oc2ccccc12 system_name="HSA (human albumin) (Homo sapiens (Human))" result_type="affinity in vitro to human albumin" measured="moderate affinity"
compound_structure=CN1CCC2(CC1)Cc1cc(/C=C/C(=O)N3CC(c4cc5ccccc5o4)C3)cnc1NC2=O system_name="HSA (human albumin) (Homo sapiens (Human))" result_type="affinity in vitro to human albumin" measured="moderate affinity"
compound_structure=CCCO/N=C(\C)C1CN(C(=O)/C=C/c2cnc3c(c2)CCC(=O)N3)C1 system_name="HSA (human albumin) (Homo sapiens (Human))" result_type="affinity in vitro to human albumin" measured="low affinity"
compound_structure=O=C1CCc2cc(/C=C/C(=O)N3CC(c4cc5ccccc5o4)C3)cnc2N1 system_name="HSA (human albumin) (Homo sapiens (Human))" result_type="affinity in vitro to human albumin" measured="moderate affinity"

Which measured affinity in vitro to human albumin value corresponds to `O=C1CCc2cc(/C=C/C(=O)N3CC(OCc4cccs4)C3)cnc2N1` ?
low affinity

Which measured affinity in vitro to human albumin value corresponds to `CCCO/N=C(/C)C1CN(C(=O)/C=C/c2cnc3c(c2)CCC(=O)N3)C1` ?
low affinity
